assay-system: T1, Ac-VQIINK-NH2
T1 peptide: Ac-VQIINK-NH2
experimental-details: cell-based or functional assay
Sorting guide: entries reporting IC50 (µM), VQIINK Inhibition (ThT) beneath 4 µM go in the satisfied pile, the rest go in the not satisfied pile.

Query string: I'd appreciate it if you could check whether RIRIFIF has IC50 (µM), VQIINK Inhibition (ThT) smaller than 4 µM.
Result string: satisfied

Query string: Field: below-cutoff. Rule: recorded IC50 (µM), VQIINK Inhibition (ThT) strictly less than 4 µM. Subject: LRIRIRW
Result string: not satisfied

Query string: Please determine if WRIRIRA is below 4 µM in terms of IC50 (µM), VQIINK Inhibition (ThT).
Result string: not satisfied

Query string: Bench note: check whether WYRIRLRYW shows IC50 (µM), VQIINK Inhibition (ThT) below 4 µM
Result string: satisfied

Query string: Record WKIKLKYW : is its IC50 (µM), VQIINK Inhibition (ThT) strictly below 4 µM?
Result string: satisfied

Query string: Would you kindly verify if IC50 (µM), VQIINK Inhibition (ThT) of WWIRIRYW is strictly less than 4 µM?
Result string: satisfied

Query string: Answer whether the binder WRIRIRL has IC50 (µM), VQIINK Inhibition (ThT) strictly less than 4 µM
Result string: not satisfied
